- methodNotes: SK-BR-3 cell growth inhibitors, pilot screen, 24 h, human (AID 572);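 also: compound exposure lasted between 18 and 24 h rather than exactly 24 h; 100% = carrier-treated control wells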
- testSettings: SK-BR-3 viability, CellTiter-Glo luminescence, at 10 µM, active compounds read low
measuredEndpoint: viability (%)
Express it in %; write the number only.

Cc1cc(C)c(S(=O)(=O)Nc2cccnc2)c(C)c1 ... 100
CC1=C(C(=O)Nc2ccccc2)C(c2ccco2)C(C#N)=C(SCC(=O)Nc2cccc(C)c2C)N1 (stereo unspecified) ... 104
CCOc1ccc2ccccc2c1/C=N/n1cncn1 ... 99.5
COc1ccc2cc([C@H](C)C(=O)O)ccc2c1 ... 93.5
O=C(Cn1nnc(-c2ccccc2)n1)Nc1ccccc1N1CCOCC1 ... 99.5

Per the records, this compound ( "Cn1c(=O)c2nc(Cl)n(Cc3ccc(Cl)cc3Cl)c2n(C)c1=O" ) has viability equal to 96

These data points were gathered from PubChem BioAssay.
